# Test system: RSK3(Kin.Dom.2-C-terminal)
# Construct: gene RPS6KA2
# MEASUREMENT_PARAMETERS: concentration: 1 μM, replicates: in singlicate; n = 1;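 note: KINOMEscan kinase panel screen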
%Inh reference
Numbers only here, please. The scale is %.

Take a look at these entries with their results.
c1ccc(-c2n[nH]cc2Nc2ccnc3ccccc23)nc1 [GW694077] ... 30
Nc1ncc(-c2ccc3nccc(-c4ccncc4)c3c2)cc1S(=O)(=O)N1CCOCC1 [GSK1627798] ... 0
c1ccc(Oc2ccc(Nc3ccnc4cc(-c5ccc(CNCCN6CCOCC6)o5)ccc34)cc2)nc1 [GW567145] ... 0
Cc1ccc(C(=O)Nc2ccc(Nc3ccnc4cc(-c5nccs5)ccc34)cc2O)cc1.Cl [GW494702] ... 0
O=C(Nc1cccc(Oc2ccc3nc(NC(=O)C4CC4)cn3n2)c1)c1ccccc1C(F)(F)F ... 0
Cn1cc(-c2[nH]c3cc(NC(=O)[C@H](N)C4CCCCC4)cc4c3c2C=NNC4=O)cn1 ... 5

Input CSc1cccc2c(-c3ccncn3)c(-c3ccc(F)cc3)nn12 [GW514786] , output reported %Inh.
0

Input Cl.Cl.NCC(C(=O)Nc1cc(Br)c(-c2ccnc3[nH]ccc23)s1)c1ccccc1 (stereo not shown) [GSK1269851] , output reported %Inh.
3

Input C[C@@H](Oc1cc(-n2cnc3cc(-c4ccnc(NCCS(C)(=O)=O)c4)ccc32)sc1C(N)=O)c1ccccc1Cl [GSK907232] , output reported %Inh.
0

Input Nc1n[nH]c2cnc(-c3ccccc3)cc12 [SB-642124] , output reported %Inh.
3

Input CCS(=O)(=O)c1ccc(OC)c(Nc2nccc(-c3c(-c4cccc(NC(=O)c5c(F)cccc5F)c4)nn4ncccc34)n2)c1 [GSK326180] , output reported %Inh.
0

* * *

# Test system: ERK1
# Construct: gene MAPK3
# MEASUREMENT_PARAMETERS: concentration: 1 μM, replicates: in singlicate; n = 1
%Inh reference
Numbers only here, please. The scale is %.

Take a look at these entries with their results.
Nc1ncnc2c1nc(-c1ccccc1)n2-c1ccccc1 [SKF-97293] ... 12
CSc1cccc2c(-c3ccncn3)c(-c3ccc(F)cc3)nn12 [GW514786] ... 14
Clc1ccc(-c2nn3ncccc3c2-c2ccnc(Nc3ccc4c(c3)OCCO4)n2)cc1 [GW829116] ... 0
O=C(NC1CCN(c2ccnc(Nc3ccc(F)cc3)n2)C1)c1cc2ccccc2s1 (stereo not shown) [GSK1379716] ... 4
COc1cc(Nc2nccc(-c3c(-c4cccc(NC(=O)c5c(F)cccc5F)c4)nn4ncccc34)n2)cc(OC)c1OC [GSK327238] ... 6
Cl.NC(=O)c1cccc(Nc2nccc(Nc3ccc(Oc4c(Cl)cccc4Cl)c(Cl)c3)n2)c1 [GW659009] ... 0

Input c1ccc(Oc2ccc(Nc3ccnc4cc(-c5ccc(CNCCN6CCOCC6)o5)ccc34)cc2)nc1 [GW567145] , output reported %Inh.
0

* * *

%Inh reference
# Tested on: CSNK1D
# MEASUREMENT_PARAMETERS: concentration: 1 μM, replicates: in singlicate; n = 1
Numbers only here, please. The scale is %.

CNC(=O)c1ccccc1Nc1nc(Nc2ccc(N3CCOCC3)cc2)ncc1Cl.Cl ... 36

Input Cn1cc(-c2[nH]c3cc(NC(=O)[C@H](N)C4CCCCC4)cc4c3c2C=NNC4=O)cn1 , output reported %Inh.
14

Input Oc1cc(Nc2ccnc3cc(I)ccc23)ccc1F , output reported %Inh.
20

Input O=C(Nc1cccc(-c2nn3ccccc3c2-c2ccnc(Nc3cccc(F)c3)n2)c1)c1c(F)ccc(F)c1Cl , output reported %Inh.
0

Input CCc1ccc(-c2ccc3c(c2)-c2c(cnn2C)S(=O)(=O)N3C)cc1 , output reported %Inh.
0

Input O=C(Nc1cccc(-c2nn3ncccc3c2-c2ccnc(Nc3ccccc3)n2)c1)c1c(F)cccc1F , output reported %Inh.
20

Input O=C(Nc1n[nH]c2nc(-c3ccc(O)cc3)ccc12)C1CC1 , output reported %Inh.
0

Input COc1cccc(C2=C(Nc3ccc(Cl)c(C(=O)O)c3)C(=O)NC2=O)c1 , output reported %Inh.
8

Input c1ccc(Oc2ccc(Nc3ccnc4cc(-c5ccc(CNCCN6CCOCC6)o5)ccc34)cc2)nc1 , output reported %Inh.
0

Input COc1ccc(-c2coc3ccc(-c4nnc(SCc5ccc(OC)c(C(F)(F)F)c5)o4)cc23)cc1 , output reported %Inh.
0

Input Cl.c1ccc(-c2ccc3c(Nc4ccc5[nH]ncc5c4)ccnc3c2)nc1 , output reported %Inh.
27

Input COc1cc(Nc2ncc3c(C)nc(-c4cc5ccccc5[nH]4)n3n2)cc(OC)c1OC , output reported %Inh.
0

Input CN1CCN(Cc2cccc(-c3ccc4c(Nc5ccc(Oc6ccccc6)cc5)ccnc4c3)c2)CC1 , output reported %Inh.
0

Input Cl.Cl.NCC(C(=O)Nc1cc(Br)c(-c2ccnc3[nH]ccc23)s1)c1ccccc1 (centres unmarked) , output reported %Inh.
35

* * *

# Tested on: HIPK4
# MEASUREMENT_PARAMETERS: concentration: 1 μM, replicates: in singlicate; n = 1
OBSERVED_PROPERTY: %Inh (%)
Numbers only here, please. The scale is %.

COc1cccc(-c2ccc3c(NC(=O)C4CC4)n[nH]c3n2)c1 ... 10
COc1ccc(Nc2nccc(NCCNC(=O)c3cc4ccccc4s3)n2)cc1 ... 0
COc1cc(Nc2ncc3c(C)nc(-c4cc5ccccc5[nH]4)n3n2)cc(OC)c1OC ... 17
CCCCc1nn2ncccc2c1-c1ccnc(Nc2ccc(N3CCN(C)CC3)cc2)n1 ... 71
CC(=O)Nc1nc2cnc(Nc3cc(NC(=O)c4cccc(C5(C#N)CC5)c4Cl)ccc3C)nc2s1 ... 6

Input Cc1ccc(C(=O)Nc2ccc(Nc3ccnc4cc(-c5nccs5)ccc34)cc2O)cc1.Cl , output reported %Inh.
0

* * *

# Test system: MEK3
# Construct: gene MAP2K3
# MEASUREMENT_PARAMETERS: concentration: 1 μM, replicates: in singlicate; n = 1
%Inh reference
Numbers only here, please. The scale is %.

Input Cl.Cl.NCC(NCc1ccc(-c2ccnc3[nH]ccc23)s1)c1ccccc1 (stereo not drawn) [GSK1321565] , output reported %Inh.
49

Input COCCOCCOc1cc2ncc3c4ccc(C#N)cc4[nH]c3c2cc1OC , output reported %Inh.
12

Input COc1cccc(C2=C(Nc3ccc(Cl)c(C(=O)O)c3)C(=O)NC2=O)c1 [SB-390769] , output reported %Inh.
0

* * *

# Tested on: LOK
# Construct: gene STK10
# MEASUREMENT_PARAMETERS: concentration: 1 μM, replicates: in singlicate; n = 1
%Inh reference
Numbers only here, please. The scale is %.

O=C(O)C(F)(F)F.O=C(O)C(F)(F)F.O=c1[nH]ccc2nc(N[C@@H]3CCCNC3)nc(Nc3ccc(S(=O)(=O)N4CCOCC4)cc3)c12 ... 78
FC(F)(F)c1ccc(/C=C/c2cncnc2Nc2ccc3[nH]c(Cc4ccccc4)nc3c2)cc1 ... 13
O=C(Nc1n[nH]c2cc(-c3ccoc3)ccc12)C1CC1 ... 0

Next, consider the following molecule.
Input COC(=O)Nc1nc2cc(Oc3ccc(NC(=O)Nc4cc(C(F)(F)F)ccc4F)cn3)ccc2[nH]1.Cl.Cl , output reported %Inh.
99.8

* * *

# Tested on: MEK5
# Construct: gene MAP2K5
# MEASUREMENT_PARAMETERS: concentration: 1 μM, replicates: in singlicate; n = 1
OBSERVED_PROPERTY: %Inh (%)
Numbers only here, please. The scale is %.

Take a look at these entries with their results.
Clc1ccc(-c2nn3ncccc3c2-c2ccnc(Nc3ccc4c(c3)OCCO4)n2)cc1 ... 33
CN(C)S(=O)(=O)c1cc(-c2ccc3nccc(-c4cccc(S(N)(=O)=O)c4)c3c2)cnc1N ... 56
Nc1ncc(-c2ccc3nccc(-c4ccncc4)c3c2)cc1S(=O)(=O)N1CCOCC1 ... 15
O=C(Nc1n[nH]c2cc(-c3ccoc3)ccc12)C1CC1 ... 45
COc1cc(Nc2nccc(N3CCC(NC(=O)Nc4cccc(C(C)=O)c4)C3)n2)cc(OC)c1OC (centres unmarked) ... 99.6

Input Cn1cc(-c2ccc3c(c2)CCN3C(=O)Cc2cccc(F)c2)c2c(N)ncnc21 , output reported %Inh.
99.9

Input Nc1ncnc2c1nc(-c1ccccc1)n2-c1ccccc1 , output reported %Inh.
32

Input O=C(Nc1cccc(Oc2ccc3nc(NC(=O)C4CC4)cn3n2)c1)c1ccccc1C(F)(F)F , output reported %Inh.
99.8

Input Cc1ccc(F)c(C(=O)Nc2cccc(-c3nn4ccccc4c3-c3ccnc(Nc4cccc(F)c4)n3)c2)c1F , output reported %Inh.
95

Input CC(=O)N1CCN(c2ccc(Nc3nccc(-c4sc(C(C)C)nc4-c4cccc(NS(=O)(=O)c5cccc(Cl)c5)c4)n3)cn2)CC1 , output reported %Inh.
99.8

Input CC(=O)Nc1nc2cnc(Nc3cc(NC(=O)c4cccc(C5(C#N)CC5)c4Cl)ccc3C)nc2s1 , output reported %Inh.
12
